These measurements were taken from BindingDB's records for doi:10.1007/bf00168557.

Target: UniProt P43140
Sequence (P43140 whole entry): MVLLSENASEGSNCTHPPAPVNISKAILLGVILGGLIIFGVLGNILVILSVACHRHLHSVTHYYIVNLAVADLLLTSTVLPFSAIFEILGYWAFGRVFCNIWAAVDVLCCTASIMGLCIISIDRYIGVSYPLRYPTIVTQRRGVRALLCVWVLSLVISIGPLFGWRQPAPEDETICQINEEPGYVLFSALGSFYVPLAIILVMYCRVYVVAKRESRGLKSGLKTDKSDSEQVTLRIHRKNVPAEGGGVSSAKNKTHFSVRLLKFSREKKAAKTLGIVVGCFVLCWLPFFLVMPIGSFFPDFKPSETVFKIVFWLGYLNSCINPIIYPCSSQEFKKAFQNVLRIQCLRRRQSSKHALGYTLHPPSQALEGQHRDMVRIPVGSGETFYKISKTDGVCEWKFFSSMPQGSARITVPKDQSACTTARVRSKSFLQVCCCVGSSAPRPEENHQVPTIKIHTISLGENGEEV
REPORTED METRIC: Ki

>>> df
                                   compound  measured
0  COc1cccc(OC)c1OCCNCC1Oc2ccccc2OC1c1ccccc1 (stereo unspecified) [NSC_185453]    0.3 nM

* * *

target: 5-hydroxytryptamine receptor 1B (Rattus norvegicus, UniProt P28564)
Sequence (P28564 whole entry): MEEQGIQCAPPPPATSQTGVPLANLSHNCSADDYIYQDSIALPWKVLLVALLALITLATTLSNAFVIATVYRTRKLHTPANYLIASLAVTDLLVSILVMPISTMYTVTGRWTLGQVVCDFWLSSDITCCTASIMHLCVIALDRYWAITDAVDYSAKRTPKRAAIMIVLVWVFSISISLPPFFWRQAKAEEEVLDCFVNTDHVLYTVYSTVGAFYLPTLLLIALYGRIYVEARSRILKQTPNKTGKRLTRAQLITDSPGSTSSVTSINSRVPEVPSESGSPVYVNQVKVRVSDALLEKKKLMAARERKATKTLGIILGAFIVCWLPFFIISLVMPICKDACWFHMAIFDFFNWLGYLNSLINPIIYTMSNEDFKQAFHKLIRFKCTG
pKi: −log10 of the molar value.
REPORTED METRIC: pKi

>>> print(df.to_string())
                                   molecule                           subject_of_test  reported_metric  measured
0  O=c1[nH]c2ccccc2n1CCN1CCN(c2ccc(C(F)(F)F)cc2)CC1  5-hydroxytryptamine receptor 1B (Rattus norvegicus, UniProt P28564)              pKi      5.68

* * *

biological target: 5-hydroxytryptamine receptor 3A (Rattus norvegicus, UniProt P35563)
Sequence (P35563 whole entry): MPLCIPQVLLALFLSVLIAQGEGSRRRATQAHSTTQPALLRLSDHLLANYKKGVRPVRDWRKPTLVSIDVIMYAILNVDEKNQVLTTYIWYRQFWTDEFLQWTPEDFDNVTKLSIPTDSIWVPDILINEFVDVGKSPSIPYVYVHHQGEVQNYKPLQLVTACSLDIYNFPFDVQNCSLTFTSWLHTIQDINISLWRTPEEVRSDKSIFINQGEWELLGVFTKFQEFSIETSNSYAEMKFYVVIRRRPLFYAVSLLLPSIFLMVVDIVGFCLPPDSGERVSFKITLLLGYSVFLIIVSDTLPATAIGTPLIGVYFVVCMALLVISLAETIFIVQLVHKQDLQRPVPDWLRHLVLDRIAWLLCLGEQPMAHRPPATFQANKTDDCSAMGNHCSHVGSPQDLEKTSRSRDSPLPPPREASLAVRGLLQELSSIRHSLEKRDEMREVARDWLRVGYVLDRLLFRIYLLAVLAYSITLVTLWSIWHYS
pKi: −log10 of the molar value.
REPORTED METRIC: pKi

                                   compound  measured
0  CN1C2CCC1CC(OC(=O)c1cc(Cl)cc(Cl)c1)C2 (centres undefined)      9.10
1  CCCN(CCC)C1CCc2cccc(O)c2C1 (centres undefined)    < 5.00
2  O=c1[nH]c2ccccc2n1CCN1CCN(c2ccc(C(F)(F)F)cc2)CC1    < 5.00
3  O=C1CC2(CCCC2)CC(=O)N1CCCCN1CCN(c2ncccn2)CC1    < 5.00
